test system: Escherichia coli; assay type: cell-based; conditions: strain 058
Bridge positions count the residues as written; N and C are the ends. Square brackets hold non-standard residues; d marks the D form. Peptide text beside a SMILES is read from it. * marks the point of attachment. ξ: configuration not given here. dCha = N[C@H](CC1CCCCC1)C(=O)O; Thr(3ξ) = CC(O)[C@H](N)C(=O)O; X7 = NCC(CC(=O)*)c1ccccc1; Dab = NCC[C@H](N)C(=O)O; Dap = NC[C@H](N)C(=O)O
I'd be grateful if you could share measured MIC E. coli 058 for these entries.
Record the result as number plus unit.

# count of solved cases: 2
{"columns": ["MOLECULE", "MIC E. coli 058"],
 "data": [
  ["CC(C)C[C@@H]1NC(=O)[C@@H](CC2CCCCC2)NC(=O)[C@H](CCN)NC(=O)[C@@H](NC(=O)[C@H](CN)NC(=O)[C@@H](NC(=O)CC(CN)Cc2ccccc2)[C@@H](C)O)CCNC(=O)[C@H]([C@@H](C)O)NC(=O)[C@H](CCN)NC(=O)[C@H](CCN)NC1=O (single isomer, unassigned; isomer 2) [Example 59]", "2 µg/mL"],
  ["CC(C)C[C@@H]1NC(=O)[C@@H](CC2CCCCC2)NC(=O)[C@H](CCN)NC(=O)[C@@H](NC(=O)[C@H](CN)NC(=O)[C@@H](NC(=O)CC(CN)c2ccccc2)C(C)O)CCNC(=O)[C@H]([C@@H](C)O)NC(=O)[C@H](CCN)NC(=O)[C@H](CCN)NC1=O (stereo partly shown) [Example 39] (X7-[Thr(3ξ)][Dap][Dab][Dab][dCha]L[Dab][Dab]T; lactam 3-C)", "4 µg/mL"]
]}

Below is a list of molecules. For each, state its recorded MIC E. coli 058.
1. CC(C)C[C@@H]1NC(=O)[C@@H](CC2CCCCC2)NC(=O)[C@H](CCN)NC(=O)[C@@H](NC(=O)[C@H](CCN)NC(=O)[C@@H](NC(=O)CC(CN)c2ccccc2)[C@@H](C)O)CCNC(=O)[C@H]([C@@H](C)O)NC(=O)[C@H](CCN)NC(=O)[C@H](CCN)NC1=O (single isomer, unassigned; isomer 1) [Example 56]
2. CC(C)C[C@@H]1NC(=O)[C@@H](CC2CCCCC2)NC(=O)[C@H](CCN)NC(=O)[C@@H](NC(=O)[C@H](CCN)NC(=O)[C@@H](NC(=O)CC(CN)CC2CCCCC2)[C@@H](C)O)CCNC(=O)[C@H]([C@@H](C)O)NC(=O)[C@H](CCN)NC(=O)[C@H](CCN)NC1=O (single isomer, unassigned) [Example 72]

1: 16 µg/mL; 2: 2 µg/mL
